Tested on: SARS-CoV-2 Mu
Experiment: microbe, parasite or virus in culture
Assay type: cell-based
Conditions: Severe acute respiratory syndrome coronavirus 2, read-out: EC50 Mean (SD)
Attribute Measured: EC50
The answer consists of two parts: a number and, after it, its unit.

Quick check: EC50 of N#C[C@H](C[C@@H]1CCCNC1=O)NC(=O)[C@H](CC1CC1)NC(=O)c1cc2cccc(Cl)c2[nH]1 ?
73 nM

----------
Target: UniProtKB P0C6X2
Sequence (P0C6X2 3335-3637 limits assumed): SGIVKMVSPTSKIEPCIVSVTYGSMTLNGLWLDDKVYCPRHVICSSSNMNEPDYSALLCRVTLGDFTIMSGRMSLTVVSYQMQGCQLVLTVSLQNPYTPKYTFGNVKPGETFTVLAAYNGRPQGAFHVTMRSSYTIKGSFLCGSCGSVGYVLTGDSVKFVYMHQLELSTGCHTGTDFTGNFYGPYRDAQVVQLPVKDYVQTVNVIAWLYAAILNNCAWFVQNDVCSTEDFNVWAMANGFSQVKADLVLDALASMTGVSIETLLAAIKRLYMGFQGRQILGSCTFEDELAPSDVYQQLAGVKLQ
Attribute Measured: pIC50
Lab note: report pIC50 as minus log10 of the concentration in molar units, number only.

Quick check: pIC50 of N#C[C@H](C[C@@H]1CCCNC1=O)NC(=O)[C@H](CC1CC1)NC(=O)c1cc2cccc(Cl)c2[nH]1 [pomotrelvir] ?
7.21

Origin of values: paper PMC10649086
